# assay-details: qHTS of pediatric cancer cell lines to identify multiple opportunities for drug repurposing: Confirmatory screen for OHS-50 cells (AID 1347128);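 note: compound exposure lasted 48 h at 37 degrees C; nearly all actives have a fitted effect of over 55% in size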
# protocol-conditions: OHS-50 osteosarcoma cells viability; series mostly up to 45.9 µM
# Protocol: Drug repurposing or repositioning has been offered as a strategy for drug development in oncology programs. […] [1] Shen, M et al. Quantitative high-throughput phenotypic screening of pediatric cancer cell lines identifies multiple opportunities for drug repurposing. […] Cells were assayed in growth media at a density of 500-1,000 cells/well. […] After a 15 min incubation at room temperature, samples were analyzed for luminescence intensity using a ViewLux High-throughput CCD imager equipped with clear filters.
Records with an inconclusive call do not appear. Active and inactive are the calls of the source. Calls come from the whole dose curve; as a rule, active = well fitted cell-killing curve with a large enough effect; inconclusive = small, poorly fitted or top-dose-only effect, or effect the other way; inactive = no such curve, though single readings can be large or run the other way.
Classes to choose from: 1.0 = active, 0.0 = inactive

Previously resolved entries follow.
Oc1ccc(O)cc1 = 0.0
CC(=O)OCC(=O)[C@@]12N=C(C)O[C@@H]1C[C@H]1[C@@H]3CCC4=CC(=O)C=C[C@]4(C)[C@H]3[C@@H](O)C[C@@]12C = 1.0
C[C@]12C=CC(=O)C=C1[C@@H](F)C[C@@H]1[C@@H]2[C@@H](O)C[C@@]2(C)[C@H]1CC[C@]2(O)C(=O)CO = 0.0

Now for a further compound.
Hey, what did the test say about C[n+]1c2cc(N)ccc2cc2ccc(N)cc21 (tested in a mixture with another compound) ? 1.0

----------
# System: MKL-1
# assay-details: qHTS assay to identify novel small-molecules to repurpose for Merkel cell carcinoma treatment (AID 1296009); note: nearly all actives have a fitted effect of over 60% in size
# protocol-conditions: MCC and control cell lines, CellTiter-Glo viability, 72 h; series mostly up to 46 µM
Results filed as inconclusive are left out. The source made the active and inactive calls. The call rests on the fitted dose curve; in most records, active means well fitted inhibition curve with a large enough effect; inconclusive means small, poorly fitted or top-dose-only effect; inactive means flat fitted curve, though single readings scatter.
Classes to choose from: true (active), false (inactive)

Previously resolved entries follow.
CCC(=O)c1c(O)cc(O)cc1O = false
NCCC(O)(P(=O)(O)O)P(=O)(O)O = false
c1ccc(CNCCNCc2ccccc2)cc1 = false
CC(C)(C)NC(=O)[C@@H]1CN(Cc2cccnc2)CCN1C[C@@H](O)C[C@@H](Cc1ccccc1)C(=O)N[C@H]1c2ccccc2C[C@H]1O = false
CCCCCCCCCCCCCCCCCC(=O)OCC(O)CO (stereo not drawn) = false
CC(=O)Nc1c(I)cc(I)c(C(=O)O)c1I = false

Now for a further compound.
Hey, what did the test say about CCCCC(=O)O[C@]1(C(=O)CO)CC[C@H]2[C@@H]3CCC4=CC(=O)CC[C@]4(C)[C@H]3[C@@H](O)C[C@@]21C ? false

----------
# Tested on: P93_24
# assay-details: qHTS profiling for inhibitors of Plasmodium falciparum proliferation (AID 504749); note: nearly all actives have a fitted effect of over 60% in size
# protocol-conditions: P. falciparum in erythrocytes, SYBR Green DNA, 72 h; series mostly up to 28.7 µM
Inconclusive results are not listed. Active and inactive are the calls of the source. Calls follow the shape of the dose curve; as a rule, active = well fitted inhibition curve with a large enough effect; inconclusive = small, poorly fitted or top-dose-only effect; inactive = flat fitted curve, though single readings scatter.
Classes to choose from: active, inactive

Previously resolved entries follow.
CCOC(=O)c1cccc(N)c1 = inactive
COc1cccc2c1C(=O)c1c(O)c3c(c(O)c1C2=O)C[C@@](O)(C(C)=O)C[C@@H]3O[C@H]1C[C@H](N)[C@H](O)[C@H](C)O1 = active
Cc1c(F)c(N2CCNC(C)C2)cc2c1c(=O)c(C(=O)O)cn2C1CC1 (stereo unspecified) = inactive
O=C1OCCN1/N=C/c1ccc([N+](=O)[O-])o1 = active

Hey, what did the test say about CN1CCC(=C2c3ccccc3Sc3ccccc32)CC1 ? active

Hey, what did the test say about COc1cccc(CCc2ccccc2OCC(CN(C)C)OC(=O)CCC(=O)O)c1 (stereo unspecified) ? active

----------
# System: CP335
# assay-details: qHTS profiling for inhibitors of Plasmodium falciparum proliferation (AID 504749); note: nearly all actives have a fitted effect of over 60% in size
# protocol-conditions: P. falciparum in erythrocytes, SYBR Green DNA, 72 h; series mostly up to 28.7 µM
Inconclusive results are not listed. Calls of active or inactive are those of the source. Calls follow the shape of the dose curve; as a rule, active = well fitted inhibition curve with a large enough effect; inconclusive = small, poorly fitted or top-dose-only effect; inactive = flat fitted curve, though single readings scatter.
Classes to choose from: yes (1) = active, no (0) = inactive

Hey, what did the test say about COCc1c(C(C)C)nc(C(C)C)c(/C=C/[C@@H](O)C[C@@H](O)CC(=O)O)c1-c1ccc(F)cc1 ? no (0)

Hey, what did the test say about CC(C)COC(=O)c1ccc(N)cc1 ? no (0)

Hey, what did the test say about C=CCc1ccc(O)c(OC)c1 ? no (0)

Hey, what did the test say about COC1=CC(=O)C[C@@H](C)[C@]12Oc1c(Cl)c(OC)cc(OC)c1C2=O ? no (0)

Hey, what did the test say about CCOC(=O)n1ccn(C)c1=S ? no (0)

----------
# Test system: CP217
# assay-details: qHTS profiling for inhibitors of Plasmodium falciparum proliferation (AID 504749); note: nearly all actives have a fitted effect of over 60% in size
# protocol-conditions: P. falciparum in erythrocytes, SYBR Green DNA, 72 h; series mostly up to 28.7 µM
Results filed as inconclusive are left out. Active and inactive are the calls of the source. The call rests on the fitted dose curve; in most records, active means well fitted inhibition curve with a large enough effect; inconclusive means small, poorly fitted or top-dose-only effect; inactive means flat fitted curve, though single readings scatter.
Classes to choose from: label 1 = active, label 0 = inactive

O=C(COc1ccc(Cl)cc1)N1CCN(Cc2ccc3c(c2)OCO3)CC1 = label 0
COCc1c(C(C)C)nc(C(C)C)c(/C=C/[C@@H](O)C[C@@H](O)CC(=O)O)c1-c1ccc(F)cc1 = label 0
CCC(=O)c1c(O)cc(O)cc1O = label 0

Hey, what did the test say about CC(C)(C)CC(C)(C)c1ccc(O)c(Cc2ccc(Cl)cc2Cl)c1 ? label 1

Hey, what did the test say about Nc1ccc(C(=O)Nc2ccccc2N)cc1 ? label 0

Hey, what did the test say about CCCCN1CCCC1C(=O)Nc1c(C)cc(C)cc1C (stereo unspecified) ? label 0

----------
# assay-details: qHTS of pediatric cancer cell lines to identify multiple opportunities for drug repurposing: Primary screen for LAN-5 cells (AID 1347100)
# protocol-conditions: LAN-5 neuroblastoma viability, CellTiter-Glo luminescence, 48 h; series mostly up to 46 µM
Results filed as inconclusive are left out. Activity calls are given as the source filed them. The call rests on the fitted dose curve; in most records, active means well fitted cell-killing curve with a large enough effect; inconclusive means small, poorly fitted or top-dose-only effect; inactive means no such curve, though single readings can be large or run the other way.
Classes to choose from: t = active, f = inactive

Previously resolved entries follow.
CC1(C)O[C@@H]2C[C@H]3[C@@H]4C[C@H](F)C5=CC(=O)C=C[C@]5(C)[C@H]4[C@@H](O)C[C@]3(C)[C@]2(C(=O)CO)O1 = f
CC1=C(C(=O)O)N2C(=O)[C@@H](NC(=O)[C@H](N)c3ccc(O)cc3)[C@H]2SC1 = f
CO/N=C1\CN(c2nc3c(cc2F)c(=O)c(C(=O)O)cn3C2CC2)CC1CN (stereo not given) = f
NC(=O)c1cc[n+](CC2=C(C(=O)[O-])N3C(=O)[C@@H](NC(=O)Cc4cccs4)[C@H]3SC2)cc1 = f
CC(=O)[C@H]1CC[C@H]2[C@@H]3C[C@H](C)C4=CC(=O)CC[C@]4(C)[C@H]3[C@@H](O)C[C@]12C = f

Hey, what did the test say about Cc1c(C(C)C)c(=O)n(-c2ccccc2)n1C ? f

Hey, what did the test say about CNC(=O)CN(CCN(CCN(CC(=O)[O-])CC(=O)NC)CC(=O)[O-])CC(=O)[O-].O.[Gd+3] ? f

Hey, what did the test say about Cc1cc(N)c2cc(NC(=O)Nc3ccc4nc(C)cc(N)c4c3)ccc2n1 ? f

Hey, what did the test say about CC(C)(C)NC(=O)[C@@H]1CN(Cc2cccnc2)CCN1C[C@@H](O)C[C@@H](Cc1ccccc1)C(=O)N[C@H]1c2ccccc2C[C@H]1O ? f

Hey, what did the test say about CCCCN1CCCC1C(=O)Nc1c(C)cc(C)cc1C (stereo not given) ? f

Hey, what did the test say about CC[C@@H](CO)NCCN[C@@H](CC)CO ? f

Hey, what did the test say about CCOC(=O)[C@H](CCc1ccccc1)N[C@@H](C)C(=O)N1Cc2ccccc2C[C@H]1C(=O)O ? f

Hey, what did the test say about O=c1[nH]c(=O)n([C@H]2C[C@H](O)[C@@H](CO)O2)cc1C(F)(F)F ? t

----------
# assay-details: qHTS of pediatric cancer cell lines to identify multiple opportunities for drug repurposing: Confirmatory screen for LAN-5 cells (AID 1347113); note: nearly all actives have a fitted effect of over 65% in size
# protocol-conditions: LAN-5 neuroblastoma cell viability; series mostly up to 45.9 µM
Results filed as inconclusive are left out. Calls of active or inactive are those of the source. Calls follow the shape of the dose curve; as a rule, active = well fitted cell-killing curve with a large enough effect; inconclusive = small, poorly fitted or top-dose-only effect, or effect the other way; inactive = no such curve, though single readings can be large or run the other way.
Classes to choose from: yes for active, no for inactive

Previously resolved entries follow.
CC(=O)Oc1ccc(C(c2ccc(OC(C)=O)cc2)c2ccccn2)cc1 = no
CC(=O)[C@H]1CC[C@H]2[C@@H]3C[C@H](C)C4=CC(=O)CC[C@]4(C)[C@H]3[C@@H](O)C[C@]12C = no
C[n+]1c2cc(N)ccc2cc2ccc(N)cc21 (tested in a mixture with another compound) = yes
CC(=O)O[C@]1(C(C)=O)CC[C@H]2[C@@H]3C[C@H](C)C4=CC(=O)CC[C@]4(C)[C@H]3CC[C@@]21C = no
CCCCC(=O)O[C@]1(C(=O)CO)CC[C@H]2[C@@H]3CCC4=CC(=O)CC[C@]4(C)[C@H]3[C@@H](O)C[C@@]21C = no

Now for a further molecule.
Hey, what did the test say about CCC(C(=O)OCCN(CC)CC)c1ccccc1 (stereo not given) ? no
